# Tested on: Toxoplasma gondii RH (in HFF)
# PROTOCOL DETAILS: parasite growth relative to the screen mean (all compounds = 100%); higher = less inhibition of parasite growth
# ASSAY SETUP: 5 µM; 72 h; oxygen 21 %
Structures can show the parent of a compound that is named as a salt.
ENDPOINT: parasite growth (%)
The reply should contain only the number, in %.

// solved cases for parasite growth follow
[
  {
    "COMPOUND": "O=C(O)C(=O)O.[NH-][C@@H]1CCCC[C@H]1[NH-].[Pt+2]",
    "UNIT SYMBOL": "%",
    "VAL": 143
  },
  {
    "COMPOUND": "N#Cc1ccccc1OCC(O)CNCCNC(=O)Nc1ccccc1 (stereo not given)",
    "UNIT SYMBOL": "%",
    "VAL": 137
  },
  {
    "COMPOUND": "Cc1ccc(=O)n(-c2ccccc2)c1",
    "UNIT SYMBOL": "%",
    "VAL": 128
  },
  {
    "COMPOUND": "CNC(=O)[C@H]1O[C@@H](n2cnc3c(NCc4cccc(I)c4)nc(Cl)nc32)[C@H](O)[C@@H]1O",
    "UNIT SYMBOL": "%",
    "VAL": 120
  },
  {
    "COMPOUND": "CC[C@@H]1Cn2c(c3nc(-c4ccccc4)nc-3n(C)c2=O)N1",
    "UNIT SYMBOL": "%",
    "VAL": 96.8
  },
  {
    "COMPOUND": "CCCCCCCC/C=C\\CCCCCCCC(N)=O [Oleamide]",
    "UNIT SYMBOL": "%",
    "VAL": 74.8
  },
  {
    "COMPOUND": "CC(C)(C)c1ccc(S(=O)(=O)/C=C/C#N)cc1",
    "UNIT SYMBOL": "%",
    "VAL": 127
  },
  {
    "COMPOUND": "Cc1ccc(C(=O)Cn2c3c(sc2=N)CCCC3)cc1 [Pifithrin- α hydrobromide]",
    "UNIT SYMBOL": "%",
    "VAL": 130
  }
]

Quick check: parasite growth of CCCCCCCCCCC(C)(C)C(=O)Nc1c(OC)cc(OC)cc1OC ? 27.8

Need parasite growth of O=C(COc1cccc2c(=O)[nH]ccc12)c1ccccc1 , thanks. 92.7
